test system: RARb homodimer (NR concentration 270 nM); assay: PBM binding z-score (relative to random genomic background probes); higher = stronger binding; sequences stand for … in GC…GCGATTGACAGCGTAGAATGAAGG
Output: class label from PBM binding z-score. Mapping: interval 1 = under 1, interval 2 = from 1 up to 2, interval 3 = 2 and over

Here's what some known entries look like.
seq | assigned-label
CGTCCAAGGTCAATGCTAGGTCAGAGAAAGCATT | interval 3
TAGCCTAGGTCAGTCAGGGGCCAGTATAGAAAGC | interval 3
ATCTCTAGGTGACAAGTTCAGTGAAAGAGAGGAC | interval 3
TAGCCTAGGTCAGTTCGGGCCAGTATACGCTATA | interval 3
CGACCAAGGTGAACAAGGTCGTTGATTACTATTC | interval 3

Challenge: Kindly identify the class of GCTTACGTGTCAAAGGTTATAGCATGAATAGAAT .
Response given: interval 2

Challenge: Kindly identify the class of ATATGTAGGTTAGCTGGGTTCATTCAGACTAGGC .
Response given: interval 2

Challenge: Kindly identify the class of GTACCCAGGTGAATAGGTCGTTGATGAGTAGGCG .
Response given: interval 2

Challenge: Kindly identify the class of CCACACAGGTGAGAAGGTAACTCAGCCTCGATTA .
Response given: interval 1

Challenge: Kindly identify the class of TCTATTAGTTGGTTAGGGCAACCGAAACAGCGGA .
Response given: interval 1

---

test system: PPARg:RXRa 270nM:90nM, anti-RXR (NR concentration 270 nM, RXRa partner concentration 90 nM); assay: PBM binding z-score (relative to random genomic background probes); higher = stronger binding; sequences stand for … in GC…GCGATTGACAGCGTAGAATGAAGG
recorded-endpoint: PBM binding z-score
One number for each entry.

Known PBM binding z-score results, listed for orientation:
seq | PBM binding z-score
CGAACTAGGTCAGAACAGGAAAGTGAAGGATGAT | 4.29
AGTCAAAGTTCAGGACGAGGTAACCTAAAGCACG | 4.79
GCGTACGGGTCAAAGGTTATAGCATGAATAGAAT | 8.74
TCTATTAGTTCATTAGGGCAACCGAAACAGCGGA | 2.92
GCAGACAGGTGAAACGCAGCTAACTCAGGGTGGC | -0.353

Working through the 5 sequences below one at a time, give PBM binding z-score for each.
1. CCTACTGGTCCACGAAAGGTCATTGATTCAGTGA
2. AGAATGAGGTTAATAAGATCAGGGAATTGCGGTC
3. GATACAGGGTCAAGGCCAGATTACGCGTATTGAT
4. TCGAGTAGGTTAGGGTCATTCAGAATGGCGTCGA
5. TCAGTCAGGTGAAGGTAACTCAGGTACGCAGTCG

Response given:
3.07
2.22
5.29
4.16
2.17

---

test system: PPARg:RXRa 30nM:10nM, anti-RXR (NR concentration 30 nM, RXRa partner concentration 10 nM); test: PBM binding z-score (relative to random genomic background probes); higher = stronger binding; sequences stand for … in GC…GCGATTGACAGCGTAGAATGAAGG
Assign fulfilled whenever PBM binding z-score does not fall below -0.2; assign not fulfilled whenever it does.

Here's what some known entries look like.
seq | assigned-label
CTACCAAGGTGAACAACGTCGTTGATTACTATTC | fulfilled
CCTAGCAGGCCAATCTGGGTCACTCAAGGCTTGA | not fulfilled
GGAACGAGGGCACAGTTGATAGCATCTGTCGACG | fulfilled
TAGCCTTGGTCAGATCGGGCCAGTATACGCTATA | not fulfilled
ATGTCTAGGTAAAAGTTCAGTGAATCCCGAGGAT | fulfilled

Could you now look at the following sequence, please?
Challenge: API: above_or_equal(metric=PBM binding z-score, cutoff=-0.2) for item TCTAGCAGGCTAGAGGGTCACTCAAGAGGTACGG
Response given: fulfilled
